Target: adenylate cyclase
Test: adenylate cyclase assay (basal and forskolin-stimulated cAMP production) in membranes from rat ventral hippocampi
Assay type: biochemical
Details: basal, read-out: EC50, M of inhibition of adenylate cyclase activity (basal)
Non-standard residues stand in square brackets, D forms with d. Residues, ends and D or L forms follow the SMILES beside them. *: point of attachment. Fmoc = O=C(OCC1c2ccccc2-c2ccccc21)*; AMC = Cc1cc(=O)oc2cc(N*)ccc12; Cha = N[CH](CC1CCCCC1)C(=O)O
Experimental Endpoint: EC50 (µM)
Answer in µM, number only, no unit symbol.

(Q) Any idea what EC50 came out for Cc1cc(=O)oc2cc(NC(=O)C(CCCCN)NC(=O)C(CC3CCCCC3)NC(=O)OCC3c4ccccc4-c4ccccc43)ccc12 (stereo not shown) [galnon] (Fmoc-[Cha]-Lys-{AMC}; configuration not given here) on adenylate cyclase?
(A) 8
